// reported %Inh per item
# System: ALK
# condition-details: concentration: 1 μM, replicates: in singlicate; n = 1;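 also: KINOMEscan kinase panel screen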

Cl.O=C(Nc1cccc(-c2nn3ncccc3c2-c2ccnc(Nc3cccnc3)n2)c1)c1c(F)cccc1F [GSK312879] :: 24%
Cn1ccc2ncnc(Oc3ccc(Nc4nc5ccccc5[nH]4)cc3)c21 :: 0%

Then there is this compound:
IN: Requested read-out: %Inh. Entry: `O=C(O)COc1ncnc2cc(-c3ccc4[nH]ncc4c3)sc12`
OUT: 0%

====

// reported %Inh per item
# Test system: CDKL3
# condition-details: concentration: 1 μM, replicates: in singlicate; n = 1
Give the value in % but do not write % after it.

Examples with their reported %Inh follow.
CCn1c(-c2ccccn2)nc2cnccc21 [SB-736398] :: 0
CS(=O)(=O)c1ccc(-c2nc3n(c2-c2ccncc2)CCC3)cc1 [SKF-105942] :: 0
CC(C)(C)c1ccc(C(=O)Nc2cn3cc(-c4cccnc4)ccc3n2)cc1 :: 20
O=S(=O)(c1ccc(-c2ccnc3[nH]ccc23)cc1)N1CCCC1 [GSK846226] :: 0

IN: Requested read-out: %Inh. Entry: Cl.c1ccc(-c2n[nH]cc2-c2ccnc(-c3ccc(CN4CCOCC4)cc3)c2)nc1 [GW776245]
OUT: 6

IN: Let us now turn to COc1ccc(C2=C(Nc3cccc(C(=O)O)c3)C(=O)NC2=O)cc1 [SB-390765]
OUT: 0

IN: Let us now turn to COc1cc2ncnc(Nc3ccc4nc(-c5ccccc5)[nH]c4c3)c2cc1OC.Cl [GW282450]
OUT: 0

====

# Test system: FER
# condition-details: concentration: 1 μM, replicates: in singlicate; n = 1
test-readout: %Inh
Answer as a quantity: numeral, then unit.

CC(=O)Nc1nc2cnc(Nc3cc(NC(=O)c4cccc(CCC#N)c4)ccc3C)nc2s1 :: 0%

IN: Requested read-out: %Inh. Entry: `Fc1cccc(COc2nnc(-c3ccc4c(c3)CCO4)o2)c1`
OUT: 0%

IN: Let us now turn to `COc1ccccc1CNC(=O)c1cc(C(=O)c2ccccc2C)c[nH]1`
OUT: 8%

IN: Let us now turn to `COc1cc2nccc(Nc3ccc(NC(=O)c4ccc(C)cc4)c(O)c3)c2cc1OC.Cl`
OUT: 45%

IN: Let us now turn to `Cc1cccc(-c2nc(Nc3ccc4[nH]ncc4c3)c3ccccc3n2)n1`
OUT: 11%

====

# System: p38-alpha
# Construct: gene MAPK14
# condition-details: concentration: 1 μM, replicates: in singlicate; n = 1
// reported %Inh per item
Give the value in % but do not write % after it.

Examples with their reported %Inh follow.
Cc1cccc(-c2nc(Nc3cccc(C(N)=O)c3)c3ccccc3n2)n1 [GW876019] :: 0
Cc1cccc(-c2nc(C)cc(Nc3ccncc3)n2)n1 [GSK257997] :: 9

IN: Requested read-out: %Inh. Entry: COc1cccc(-c2cc(-c3c[nH]nc3-c3ccccn3)ccn2)c1 [GW680338]
OUT: 27

IN: Let us now turn to `Cn1ccc2ncnc(Oc3ccc(Nc4nc5ccccc5[nH]4)cc3)c21`
OUT: 5

IN: Let us now turn to CCCc1ccc(S(=O)(=O)NC2CCN(c3ccnc(Nc4ccc(F)cc4)n3)C2)cc1 (stereo not drawn) [GSK1379715]
OUT: 3

IN: Let us now turn to Cl.Oc1ccc(-c2nc(-c3ccccc3)[nH]c2-c2ccncc2)cc1 [SB-428218]
OUT: 63

IN: Let us now turn to COc1ccc(CNC(=O)NC2CCN(c3ccnc(Nc4cc(OC)c(OC)c(OC)c4)n3)C2)cc1 (stereo not drawn) [GSK1379748]
OUT: 12

IN: Let us now turn to COc1ccccc1-c1ccc2c(NC(=O)C3CC3)n[nH]c2n1 [SB-711239]
OUT: 26

IN: Let us now turn to Cc1ccccc1-n1cnc2c(N)ncnc21 [SKF-97510]
OUT: 0

IN: Let us now turn to `Cc1cccc(-c2nc(-c3ccc(S(C)(=O)=O)cc3)sc2-c2ccnc(NCCc3ccccc3)c2)c1`
OUT: 82

IN: Let us now turn to Nc1ncnc2[nH]c(-c3ccccc3)nc12 [AH5015]
OUT: 0

IN: Let us now turn to COc1ccc(Nc2nccc(NCCNC(=O)Nc3ccccc3F)n2)cc1 [GSK1379901]
OUT: 20
